- EXPERIMENT_NOTES: Cytotoxicity against human IGROV-ET cells after 48 hrs by SRB assay
- Type: functional
- MEASUREMENT_PARAMETERS: read-out: LC50 (the source's name)
MEASURE_NAME: log10 CC50 (log10 of the value in nM)

SMILES_STRUCTURE	NUMERIC_VALUE
C/C=C1\NC(=O)[C@H](Cc2ccccc2)NC(=O)[C@@H](C(C)C)NC(=O)[C@@H]([C@H](C)CC)NC(=O)[C@H](NC(=O)[C@H](NC(=O)[C@H](CCCN)NC(=O)[C@H]2CCCN2C(=O)[C@H](NC(=O)[C@@H](NC(=O)[C@H](C)NC(=O)[C@H](NC(=O)CCCC(C)C)C(C)C)C(C)C)C(C)C)[C@H](C)CC)[C@H](C)OC(=O)[C@H](C(C)C)NC1=O	2.75
C/C=C1\NC(=O)[C@H](Cc2ccccc2)NC(=O)[C@@H](C(C)C)NC(=O)[C@@H]([C@H](C)CC)NC(=O)[C@H](NC(=O)[C@H](NC(=O)[C@H](CCCNC(=O)CCOCCOCCN)NC(=O)[C@H]2CCCN2C(=O)[C@H](NC(=O)[C@@H](NC(=O)[C@@H](NC(=O)[C@H](NC(=O)CCCC(C)C)C(C)C)[C@@H](C)O)C(C)C)C(C)C)[C@H](C)CC)[C@H](C)OC(=O)[C@H](C(C)C)NC1=O	2.71
C/C=C1\NC(=O)[C@H](Cc2ccccc2)NC(=O)[C@@H](C(C)C)NC(=O)[C@@H]([C@H](C)CC)NC(=O)[C@H](NC(=O)[C@H](NC(=O)[C@H](CCCN)NC(=O)[C@H]2CCCN2C(=O)[C@H](NC(=O)[C@@H](NC(=O)[C@H](NC(=O)[C@H](NC(=O)CCCC(C)C)C(C)C)[C@@H](C)O)C(C)C)C(C)C)[C@H](C)CC)[C@H](C)OC(=O)[C@H](C(C)C)NC1=O	3.02
C/C=C1\NC(=O)[C@H](Cc2ccccc2)NC(=O)[C@@H](C(C)C)NC(=O)[C@@H]([C@H](C)CC)NC(=O)[C@H](NC(=O)[C@H](NC(=O)[C@H](CCCN)NC(=O)[C@H]2CCCN2C(=O)[C@H](NC(=O)[C@@H](NC(=O)[C@@H](NC(=O)[C@H](NC(=O)CC(C)C)C(C)C)[C@@H](C)O)C(C)C)C(C)C)[C@H](C)CC)[C@H](C)OC(=O)[C@H](C(C)C)NC1=O	2.85
C/C=C1\NC(=O)[C@H](Cc2ccccc2)NC(=O)[C@@H](C(C)C)NC(=O)[C@@H]([C@H](C)CC)NC(=O)[C@H](NC(=O)[C@H](NC(=O)[C@H](CCCN)NC(=O)[C@H]2CCCN2C(=O)[C@H](NC(=O)[C@@H](NC(=O)[C@@H](NC(=O)[C@@H](NC(=O)CCCC(C)C)C(C)C)[C@@H](C)O)C(C)C)C(C)C)[C@H](C)CC)[C@H](C)OC(=O)[C@H](C(C)C)NC1=O	2.72
C/C=C1\NC(=O)[C@H](Cc2ccccc2)NC(=O)[C@@H](CCC2CCCCC2)NC(=O)[C@@H](CCC2CCCCC2)NC(=O)[C@H](NC(=O)[C@@H](CCC2CCCCC2)NC(=O)[C@H](CCCN)NC(=O)[C@H]2CCCN2C(=O)[C@H](NC(=O)[C@@H](NC(=O)[C@@H](NC(=O)[C@H](NC(=O)CCCC(C)C)C(C)C)[C@@H](C)O)C(C)C)C(C)C)[C@H](C)OC(=O)[C@H](C(C)C)NC1=O	1.74
CC[C@@H](C)[C@@H](NC(=O)[C@H](CCCN)NC(=O)[C@H]1CCCN1C(=O)[C@H](NC(=O)[C@@H](NC(=O)[C@@H](NC(=O)[C@H](NC(=O)CCCC(C)C)C(C)C)[C@@H](C)O)C(C)C)C(C)C)C(=O)N[C@H]1C(=O)N[C@H]([C@H](C)CC)C(=O)N[C@H](C(C)C)C(=O)N[C@@H](Cc2ccccc2)C(=O)N[C@H]([C@H](C)O)C(=O)N[C@@H](C(C)C)C(=O)O[C@H]1C	3.01
C/C=C1\NC(=O)[C@H](Cc2ccc(OC)cc2)NC(=O)[C@@H](C(C)C)NC(=O)[C@@H]([C@H](C)CC)NC(=O)[C@H](NC(=O)[C@H](NC(=O)[C@H](CCCN)NC(=O)[C@H]2CCCN2C(=O)[C@H](NC(=O)[C@@H](NC(=O)[C@@H](NC(=O)[C@H](NC(=O)CC[C@@H](C)CC)C(C)C)[C@@H](C)O)C(C)C)C(C)C)[C@H](C)CC)[C@H](C)OC(=O)[C@H](C(C)C)NC1=O	2.67
C/C=C1\NC(=O)[C@H](Cc2ccccc2)NC(=O)[C@@H](C(C)C)NC(=O)[C@@H]([C@H](C)CC)NC(=O)[C@H](NC(=O)[C@H](NC(=O)[C@H](CCCN)NC(=O)[C@H]2CCCN2C(=O)[C@H](NC(=O)[C@H](CCC2CCCCC2)NC(=O)[C@@H](NC(=O)[C@@H](CC2CCCCC2)NC(=O)CCCC(C)C)[C@@H](C)O)C(C)C)[C@H](C)CC)[C@H](C)OC(=O)[C@H](C(C)C)NC1=O	2.99
C/C=C1\NC(=O)[C@H](Cc2cccc(Cl)c2)NC(=O)[C@@H](C(C)C)NC(=O)[C@@H]([C@H](C)CC)NC(=O)[C@H](NC(=O)[C@H](NC(=O)[C@H](CCCN)NC(=O)[C@H]2CCCN2C(=O)[C@H](NC(=O)[C@@H](NC(=O)[C@@H](NC(=O)[C@H](NC(=O)CCCC(C)C)C(C)C)[C@@H](C)O)C(C)C)C(C)C)[C@H](C)CC)[C@H](C)OC(=O)[C@H](C(C)C)NC1=O	2.21

###

GI50 by entry:
- System: A549
- EXPERIMENT_NOTES: Cytotoxicity against human A549 cells after 48 hrs by SRB assay
- Format: functional, cell-based
- MEASUREMENT_PARAMETERS: Homo sapiens, A549, 48 h; read-out: GI50

SMILES_STRUCTURE	SYSTEM_NAME	GI50
C/C=C1\NC(=O)[C@H](Cc2ccccc2)NC(=O)[C@@H](C(C)C)NC(=O)[C@@H]([C@H](C)CC)NC(=O)[C@H](NC(=O)[C@H](NC(=O)[C@H](CCCN)NC(=O)[C@H]2CCCN2C(=O)[C@H](NC(=O)[C@@H](NC(=O)[C@H](CC(C)C)NC(=O)[C@H](NC(=O)CCCC(C)C)C(C)C)C(C)C)C(C)C)[C@H](C)CC)[C@H](C)OC(=O)[C@H](C(C)C)NC1=O	A549	637 nM
C/C=C1\NC(=O)[C@H](Cc2ccccc2)NC(=O)[C@@H](C(C)C)NC(=O)[C@@H]([C@H](C)CC)NC(=O)[C@H](NC(=O)[C@H](NC(=O)[C@H](CCCN)NC(=O)[C@H]2CCCN2C(=O)[C@H](NC(=O)[C@@H](NC(=O)[C@@H](NC(=O)[C@H](NC(=O)CCCC(C)C)C(C)C)[C@@H](C)O)C(C)C)C(C)C)[C@H](C)CC)COC(=O)[C@H](C(C)C)NC1=O	A549	1440 nM
C/C=C1\NC(=O)[C@H](Cc2ccccc2)NC(=O)[C@@H](C(C)C)NC(=O)[C@@H]([C@H](C)CC)NC(=O)[C@H](NC(=O)[C@H](NC(=O)[C@H](CCCN)NC(=O)[C@H]2CCCN2C(=O)[C@H](NC(=O)[C@H](Cc2ccccc2)NC(=O)[C@@H](NC(=O)[C@H](NC(=O)CCCC(C)C)C(C)C)[C@@H](C)O)C(C)C)[C@H](C)CC)[C@H](C)OC(=O)[C@H](C(C)C)NC1=O	A549	722 nM

###

- EXPERIMENT_NOTES: Cytotoxicity against human IGROV-ET cells after 48 hrs by SRB assay
- Assay type: functional
- MEASUREMENT_PARAMETERS: read-out: LC50 (the source's name)
Consider the cut-off 600 nM. If the recorded CC50 is strictly smaller, the label is yes; if not, the label is no.

SMILES_STRUCTURE	ASSIGNED_CATEGORY
C/C=C1\NC(=O)[C@H](Cc2ccccc2)NC(=O)[C@@H](C(C)C)NC(=O)[C@@H]([C@H](C)CC)NC(=O)[C@H](NC(=O)[C@H](NC(=O)[C@H](CCCN)NC(=O)[C@H]2CCCN2C(=O)[C@H](NC(=O)[C@@H](NC(=O)[C@@H](NC(=O)[C@H](NC(=O)CCCCCCCCCC)C(C)C)[C@@H](C)O)C(C)C)C(C)C)[C@H](C)CC)[C@H](C)OC(=O)[C@H](C(C)C)NC1=O	yes
C/C=C1\NC(=O)[C@H](Cc2ccccc2)NC(=O)[C@@H](C(C)C)NC(=O)[C@@H]([C@H](C)CC)NC(=O)[C@H](NC(=O)[C@H](NC(=O)[C@H](CCCN)NC(=O)[C@H]2CCCN2C(=O)[C@H](NC(=O)[C@@H](NC(=O)[C@H](Cc2ccccc2)NC(=O)[C@H](NC(=O)CCCC(C)C)C(C)C)C(C)C)C(C)C)[C@H](C)CC)[C@H](C)OC(=O)[C@H](C(C)C)NC1=O	yes
C/C=C1\NC(=O)[C@H](Cc2ccccc2)NC(=O)[C@@H](C(C)C)NC(=O)[C@@H]([C@H](C)CC)NC(=O)[C@H](NC(=O)[C@H](NC(=O)[C@H](CCCN)NC(=O)[C@H]2CCCN2C(=O)[C@H](NC(=O)[C@@H]2CCCN2C(=O)[C@@H](NC(=O)[C@H](NC(=O)CCCC(C)C)C(C)C)[C@@H](C)O)C(C)C)[C@H](C)CC)[C@H](C)OC(=O)[C@H](C(C)C)NC1=O	no
C/C=C1\NC(=O)[C@H](Cc2ccccc2)NC(=O)[C@@H](C(C)C)NC(=O)[C@@H]([C@H](C)CC)NC(=O)[C@H](NC(=O)[C@H](NC(=O)[C@H](CCCN)NC(=O)[C@H]2CCCN2C(=O)[C@H](NC(=O)[C@@H](NC(=O)[C@@H](NC(=O)[C@H](NC(=O)CCCC(C)C)C(C)C)[C@@H](C)O)[C@@H](C)O)C(C)C)[C@H](C)CC)[C@H](C)OC(=O)[C@H](C(C)C)NC1=O	no
C/C=C1\NC(=O)[C@H](Cc2ccccc2)NC(=O)[C@@H](C(C)C)NC(=O)[C@@H]([C@H](C)CC)NC(=O)[C@H](NC(=O)[C@H](NC(=O)[C@H](CCCN)NC(=O)[C@H]2CCCN2C(=O)[C@H](NC(=O)[C@H](CCCN)NC(=O)[C@@H](NC(=O)[C@H](NC(=O)CCCC(C)C)C(C)C)[C@@H](C)O)C(C)C)[C@H](C)CC)[C@H](C)OC(=O)[C@H](C(C)C)NC1=O	no
